tested on: MCF7; assay: Enhancement of 0.003 uM vinblastine-induced cytotoxicity in human MCF7 cells assessed as growth inhibition level after 48 hrs by SRB assay; assay type: functional, cell-based; conditions: MCF7, 48 h
Quantity: IC50 (µM)
Answer with a number only, understood to be in µM.

-- ask Name the reported IC50 value associated with the compound CCCCCCCCCC(=O)O[C@H]1[C@H](O[C@@H]2[C@@H](O)[C@@H](O)[C@H](O[C@H]3[C@H](O[C@@H](CCCCC)CCCCCCCCCC(=O)OC)O[C@H](C)[C@H](O)[C@@H]3O)O[C@H]2C)O[C@@H](C)[C@H](O[C@@H]2O[C@@H](C)[C@H](O)[C@@H](O)[C@H]2O)[C@H]1O[C@@H]1O[C@H](CO)[C@@H](O)[C@H](O)[C@H]1O
-- reply 4.7

-- ask I would be grateful if you could share the reported IC50 for CCCCCCCCCC(=O)O[C@H]1[C@H](O[C@@H]2[C@H]3OC(=O)CCCCCCCCC[C@H](CCCCC)O[C@@H]4O[C@H](C)[C@H](O)[C@H](O)[C@H]4O[C@H](O[C@H]2C)[C@@H]3O)O[C@@H](C)[C@H](O[C@@H]2O[C@@H](C)[C@H](O)[C@@H](O)[C@H]2O)[C@H]1O[C@@H]1O[C@H](CO)[C@@H](O)[C@H](O)[C@H]1O .
-- reply 12.3

-- ask Quick check: IC50 of CCCCCCCCCCCC(=O)O[C@H]1[C@H](O[C@@H]2[C@H]3OC(=O)CCCCCCCCC[C@H](CCCCC)O[C@@H]4O[C@H](C)[C@H](O)[C@H](O)[C@H]4O[C@H](O[C@H]2C)[C@@H]3O)O[C@@H](C)[C@H](O[C@@H]2O[C@@H](C)[C@H](O)[C@@H](O)[C@H]2O)[C@H]1O[C@@H]1O[C@H](CO)[C@@H](O)[C@H](O)[C@H]1O ?
-- reply 15.2

###

IC50 reference
tested on: HeLa; test: Cytotoxicity in human HeLa cells assessed as growth inhibition level after 48 hrs by SRB assay; format: functional, cell-based

-- ask Request the reported IC50 associated with CC[C@]1(O)C[C@@H]2CN(CCc3c([nH]c4ccccc34)[C@@](C(=O)OC)(c3cc4c(cc3OC)N(C)[C@H]3[C@@](O)(C(=O)OC)[C@H](OC(C)=O)[C@]5(CC)C=CCN6CC[C@]43[C@@H]65)C2)C1 [VINBLASTINE]
-- reply 0.004 µM

Could you now consider this next compound?
-- ask What does the record list as IC50 for CCCCCCCCCCCC(=O)O[C@H]1[C@H](O[C@@H]2[C@H]3OC(=O)CCCCCCCCC[C@H](CCCCC)O[C@@H]4O[C@H](C)[C@H](O)[C@H](O)[C@H]4O[C@H](O[C@H]2C)[C@@H]3O)O[C@@H](C)[C@H](O[C@@H]2O[C@@H](C)[C@H](O)[C@@H](O)[C@H]2O)[C@H]1O[C@@H]1O[C@H](CO)[C@@H](O)[C@H](O)[C@H]1O ?
-- reply > 25 µM

###

system: HeLa; assay: Cytotoxicity in human HeLa cells assessed as growth inhibition level after 48 hrs by SRB assay; type: functional, cell-based
Quantity: IC50

Some compounds with recorded IC50:
-- ask Item COc1cc2c(c(OC)c1OC)-c1ccc(OC)c(=O)cc1[C@@H](NC(C)=O)CC2 has what recorded IC50?
-- reply 0.006 µM

-- ask Entry under review: CCCCCCCCCC(=O)O[C@H]1[C@H](O[C@@H]2[C@H]3OC(=O)CCCCCCCCC[C@H](CCCCC)O[C@@H]4O[C@H](C)[C@H](O)[C@H](O)[C@H]4O[C@H](O[C@H]2C)[C@@H]3O)O[C@@H](C)[C@H](O[C@@H]2O[C@@H](C)[C@H](O)[C@@H](O)[C@H]2O)[C@H]1O[C@@H]1O[C@H](CO)[C@@H](O)[C@H](O)[C@H]1O . Reported IC50?
-- reply > 25 µM

-- ask Which value of IC50 has been reported for CCCCCCCCCCCC(=O)O[C@H]1[C@H](O[C@@H]2[C@@H](O)[C@@H](O)[C@H](O[C@H]3[C@H](O[C@@H](CCCCC)CCCCCCCCCC(=O)OC)O[C@H](C)[C@H](O)[C@@H]3O)O[C@H]2C)O[C@@H](C)[C@H](O[C@@H]2O[C@@H](C)[C@H](O)[C@@H](O)[C@H]2O)[C@H]1O[C@@H]1O[C@H](CO)[C@@H](O)[C@H](O)[C@H]1O in the records?
-- reply > 25 µM

# ---- query compound ----
-- ask Fill in: IC50 of CCCCCCCCCC(=O)O[C@H]1[C@H](O[C@@H]2[C@@H](O)[C@@H](O)[C@H](O[C@H]3[C@H](O[C@@H](CCCCC)CCCCCCCCCC(=O)OC)O[C@H](C)[C@H](O)[C@@H]3O)O[C@H]2C)O[C@@H](C)[C@H](O[C@@H]2O[C@@H](C)[C@H](O)[C@@H](O)[C@H]2O)[C@H]1O[C@@H]1O[C@H](CO)[C@@H](O)[C@H](O)[C@H]1O is ___
-- reply > 25 µM

# credit: ChEMBL document CHEMBL5126638
